system: HLA-DRB1*01:01 (Homo sapiens, UniProt P01903+P01911, A100R/D57E/F55L/F60I/F76Y/I96L/L162R/M171V/P40L/Q125E/R42F/V115G/Y59C)
Construct: EBV transformed homozygous cell lines were used as sources of MHC molecules; endogenous in cells; host or cells: EBV transformed homozygous cell lines
procedureText: HLA class II peptide binding, inhibition of radiolabeled peptide binding to purified MHC
conditionParameters: wild-type (unmodified Arg) 15-mer peptide; purified HLA-DRB1*01:01; read-out: DRB1*01:01 binding capacity, WT peptide (IC50 nM)
endpointName: IC50 (nM)
Lab book: enter the figure in nM, no units written.

# input Endpoint output: IC50 of "CC[C@H](C)[C@H](NC(=O)[C@H](CCC(=O)O)NC(=O)[C@H](CC(=O)O)NC(=O)[C@@H](N)CCC(N)=O)C(=O)N[C@@H](CCC(N)=O)C(=O)N[C@@H](CC(N)=O)C(=O)N[C@@H](CCSC)C(=O)N[C@@H](CCCCN)C(=O)N[C@@H](CCC(=O)O)C(=O)N[C@@H](CCC(=O)O)C(=O)N[C@@H](CCSC)C(=O)N[C@@H](C)C(=O)N[C@@H](CCCNC(=N)N)C(=O)N[C@@H](Cc1c[nH]cn1)C(=O)N[C@@H](CC(C)C)C(=O)O" . Value?
# output 7110

Source of measurements: paper PMC5421785
